- Tested on: HCK;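 note: KINOMEscan kinase panel screen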
- test parameters: concentration: 1 μM, replicates: in singlicate; n = 1
measured endpoint: %Inh (%)

# record smiles, reported measurement
rows = [
    ("O=C(Nc1n[nH]c2cc(-c3cccs3)ccc12)C1CC1", 0),
    ("CN(C)CCNS(=O)(=O)c1ccc(-c2ccnc3[nH]ccc23)cc1", 0),
    ("Cn1cc(-c2cnc(N)c3c(-c4ccc5c(c4)CCN5C(=O)Cc4ccccc4)csc23)cn1", 86),
    ("CN(c1ccc(F)c(NC(=O)c2cccc(OC(C)(C)C#N)c2Cl)c1)c1ccc2nc(NC(=O)C3CC3)sc2n1", 90),
    ("COc1cccc(-c2nc(-c3ccccc3)[nH]c2-c2ccncc2)c1", 0),
    ("COC(=O)Nc1nc2ccc(Oc3ccc(CC(=O)Nc4cc(C(F)(F)F)ccc4F)cc3)cc2[nH]1", 0),
    ("O=C1NC(=O)C(c2ccccc2Cl)=C1Nc1cccc(Cl)c1", 0),
    ("O=C(O)C(F)(F)F.O=c1[nH]ccc2nc(N[C@@H]3CCNC3)nc(Nc3ccc4c(c3)S(=O)(=O)CC4)c12", 59),
]
